Recorded values, source ChEMBL document CHEMBL4033626.

system: RAW264.7; assay: Cytotoxicity against mouse RAW264.7 cells at 10 uM after 24 hrs by MTS assay; assay type: cell-based; settings: raw264.7, 24 h
endpoint: Activity

// below: answered compounds
Task item: Param item = "O=C1/C(=C/c2ccccc2Br)Cc2cccc(O)c21" ; retrieve measured Activity.
Reply: Non-Toxic

Task item: // returns reported Activity for input "O=C1/C(=C/c2ccccc2C(F)(F)F)Cc2ccc(O)cc21"
Reply: Non-Toxic

Task item: // lookup Activity for "O=C1/C(=C/c2ccccc2F)Cc2cc(O)ccc21"
Reply: Non-Toxic

Task item: Recorded Activity for "O=C1/C(=C/c2ccccc2OC(F)(F)F)Cc2ccccc21" , please?
Reply: Non-Toxic

Task item: Give its Activity value. Item: "O=C1/C(=C/c2cccc(F)c2)Cc2cccc(O)c21"
Reply: Non-Toxic

Continuing:
Task item: If you can, please state the reported Activity value of "O=C1/C(=C/c2cccc(Br)c2)Cc2cccc(O)c21" .
Reply: Non-Toxic

Task item: Data request, read-out Activity, for "O=C1/C(=C/c2ccccc2OC(F)(F)F)Cc2ccc(O)cc21"
Reply: Non-Toxic

Task item: Request the reported Activity associated with "O=C1/C(=C/c2ccccc2F)Cc2cccc(O)c21"
Reply: Non-Toxic

Task item: Given the entry "O=C1/C(=C/c2ccc(F)cc2)Cc2cc(O)ccc21" , report its measured Activity.
Reply: Non-Toxic

Task item: Reported Activity for "O=C1/C(=C/c2cccc(C(F)(F)F)c2)Cc2cc(O)ccc21" : what is it?
Reply: Non-Toxic

Task item: For "O=C1/C(=C/c2ccccc2OC(F)(F)F)Cc2cccc(O)c21" , what is its reported Activity?
Reply: Non-Toxic

Task item: // lookup Activity for "O=C1/C(=C/c2ccc(OC(F)(F)F)cc2)Cc2ccccc21"
Reply: Non-Toxic

Task item: Would you mind telling me what Activity value was observed for "O=C1/C(=C/c2ccccc2OC(F)(F)F)Cc2c(O)cccc21" ?
Reply: Non-Toxic

Task item: Given the entry "O=C1/C(=C/c2cccc(OC(F)(F)F)c2)Cc2ccc(O)cc21" , report its measured Activity.
Reply: Non-Toxic

Task item: Using the record for "O=C1/C(=C/c2cccc(F)c2)Cc2c(O)cccc21" , report its Activity.
Reply: Non-Toxic
